Overview of recorded IC50 for various compounds
Test system: H3K18Ac in HB-CLS-2 cells
procedure_text: H3K18AC in-cell western (ICW) assay
Type: cell-based
condition_details: H3K18Ac in-cell western, HB-CLS-2 cells; read-out: CREBBP ICW IC50
Write the value in µM as a bare number.

compound	assay_value
CCc1nc(-c2cc(C(=O)N(C)Cc3cnn(CC)c3C)c3cc(Cl)ccc3n2)ccc1NCCNC [Compound 425]	0.15
CCn1ncc(CN(C)C(=O)c2nc(-c3cccc(Cl)c3)nc3cc(N4CCOCC4)c(Cl)cc23)c1C [Compound 200]	20
CCn1ncc(CN(C)C(=O)c2nc(-c3ccc4c(N)[nH]nc4c3C)nc3ccc(Cl)cc23)c1C [Compound 402]	0.35
CCn1ncc(CN(C)C(=O)c2nc(-c3cc(Cl)cc(CNC4CCNCC4)c3)nc3ccc(Cl)cc23)c1C [Compound 394]	5.4
CCn1ncc(CN(C)C(=O)c2nc(-c3ccccc3Cl)nc3ccc(COC)cc23)c1C [Compound 276]	1.5
CCn1ncc(CN(C)C(=O)c2nc(-c3cnn(CCCO)c3)nc3ccc(Cl)cc23)c1C [Compound 212]	20

(Q) For the compound CCn1ncc(CN(C)C(=O)c2nc(Cc3ccccc3)nc3ccc(Cl)cc23)c1C [Compound 225] , what IC50 is on record?
(A) 20

(Q) Another compound to check: CCn1ncc(CN(C)C(=O)c2cc(-c3ccc(NC)c(C)n3)nc3ccc(Cl)cc23)c1C [Compound 404]
(A) 0.17

(Q) Similarly, CCn1ncc(CN(C)C(=O)c2nc(-c3cc(N)c4nc[nH]c4c3)nc3ccc(Cl)cc23)c1C [Compound 422] ?
(A) 0.6

(Q) Similarly, CCn1ncc(CN(C)C(=O)c2nc(C3CCCN3)nc3ccc(Cl)cc23)c1C (stereo not shown) [Compound 207] ?
(A) 20

(Q) Also check CCn1ncc(CN(C)C(=O)c2nc(-c3ccc(OCCN(C)C(=O)OC(C)(C)C)c(F)c3)nc3ccc(Cl)cc23)c1C [Compound 251]
(A) 20

(Q) Let us now turn to CCn1ncc(CN(C)C(=O)c2cc(-c3cc4[nH]cnc4cn3)nc3ccc(Cl)cc23)c1C [Compound 400]
(A) 0.11

(Q) Check CCn1ncc(CN(C)C(=O)c2nc(-c3cc(CNC)n(C)n3)nc3ccc(Cl)cc23)c1C [Compound 380] too.
(A) 20
